- Experimental system: Steroidogenic acute regulatory protein, mitochondrial (Mus musculus)
- Sequence (whole entry): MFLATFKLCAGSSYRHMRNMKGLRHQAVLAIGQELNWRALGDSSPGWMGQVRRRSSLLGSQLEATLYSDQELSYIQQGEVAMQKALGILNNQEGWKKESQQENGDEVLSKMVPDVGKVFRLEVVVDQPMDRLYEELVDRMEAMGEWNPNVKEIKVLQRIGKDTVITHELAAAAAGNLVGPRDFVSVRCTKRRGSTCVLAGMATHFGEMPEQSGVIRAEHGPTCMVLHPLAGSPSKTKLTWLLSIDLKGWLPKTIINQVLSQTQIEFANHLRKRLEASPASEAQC
- Run description: Inhibition of STAR in mouse MA-10 cells assessed as inhibition of dbcAMP-stimulated […] at 10 uM after 2 hrs by RIA
- Format: cell-based
Calls of active or inactive are those of the source. No cut-off for these calls is given here.
Parameter measured: inhibition

Compound	inhibition
C[C@]12CCC(=O)C=C1CC[C@@H]1[C@@H]2[C@@H](O)C[C@@]2(C)[C@H]1CC[C@]2(O)C(=O)CO	inactive
C[C@H](CCC(=O)O)[C@H]1CC[C@H]2[C@@H]3CC=C4C[C@@H](O)CC[C@]4(C)[C@H]3CC[C@]12C	inactive
C[C@]12CC[C@H]3[C@@H](CC=C4C[C@@H](O)CC[C@@]43C)[C@@H]1C/C(=C/c1ccc(OC(F)F)cc1)[C@@H]2O	50%
C[C@]12CC(O)[C@H]3[C@@H](CCC4=CC(=O)CC[C@@]43C)[C@@H]1CC[C@@H]2C(=O)O (stereo partly specified)	inactive

The measured inhibition associated with CC(=O)OCC(=O)[C@H]1CC[C@H]2[C@@H]3CC=C4C[C@@H](O)CC[C@]4(C)[C@H]3CC[C@]12C reads 50%

The measured inhibition associated with CC(=O)O[C@H]1CC[C@@]2(C)C(=CC[C@H]3[C@@H]4CC(O)[C@H]([C@H](C)OC(C)=O)[C@@]4(C)CC[C@@H]32)C1 (stereo partly specified) reads inactive
